target: T1, human ROR1-Fz (Homo sapiens, UniProt Q01973); experiment: Biacore off-rate and kinetic analysis, ROR1-Fz; format: binding; settings: Table 11; SP34 light chain
T1 construct: Frizzled (Fz, residues 165-305); His6 (C); purchased Acro Biosystems; host or cells: HEK293
T1 sequence (Q01973 165-305): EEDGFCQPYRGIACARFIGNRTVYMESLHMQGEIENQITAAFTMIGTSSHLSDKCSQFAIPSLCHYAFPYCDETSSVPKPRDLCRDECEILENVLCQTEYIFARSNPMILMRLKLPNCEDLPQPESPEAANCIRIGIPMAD
Endpoint: Biacore human ROR1-Fz ka (M⁻¹ s⁻¹)
Unit M⁻¹ s⁻¹ implied. Number only.

SRP2196-C04 (antibody, V domains shown) VH: EVQLVESGGGLVQPGGSLRLSCAASGFNITGYYIHWVRQAPGKGLEWVGFIAPLSGSTHNADSVKGRFTISADTSKNTAYLQMNSLRAEDTAVYYCARESRRYVNPWDYWGQGTLVTVSS VL: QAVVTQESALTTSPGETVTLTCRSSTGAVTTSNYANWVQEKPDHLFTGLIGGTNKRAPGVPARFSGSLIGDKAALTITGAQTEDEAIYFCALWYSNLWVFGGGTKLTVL | 131000

Which measured Biacore human ROR1-Fz ka value corresponds to SRP2196-B01 (antibody, V domains shown) VH: EVQLVESGGGLVQPGGSLRLSCAASGFNITGYYIHWVRQAPGKGLEWVGQISPNSGYTYYADSVKGRFTISADTSKNTTYLQMNSLRAEDTAVYYCARDSRRYVRSWDYWGQGTLVTVSS VL: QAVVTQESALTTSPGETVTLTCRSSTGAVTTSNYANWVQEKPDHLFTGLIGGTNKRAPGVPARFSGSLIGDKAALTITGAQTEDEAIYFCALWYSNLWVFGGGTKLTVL ?
131000

Another molecule to look at: SRP2196-A05 (antibody, V domains shown) VH: EVQLVESGGGLVQPGGSLRLSCAASGFNITNYYIHWVRQAPGKGLEWVGYISPNSGATYQADSVKGRFTISADTSKNTAYLQMNSLRAEDTAVYYCARDSRRYVRSWDYWGQGTLVTVSS VL: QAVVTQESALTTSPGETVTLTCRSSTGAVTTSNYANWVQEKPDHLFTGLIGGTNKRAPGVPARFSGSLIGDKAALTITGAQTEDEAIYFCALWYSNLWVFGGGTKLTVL
175000

Here is the next molecule: SRP2196-B07 (antibody, V domains shown) VH: EVQLVESGGGLVQPGGSLRLSCAASGFNITGYHIHWVRQAPGEGLEWVGYISPNSGATYYADSVEGRFTISADTSKNTAYLQMHSLRAEDTAVYYCTRDSRRYVRGWDYWGQGTLVTVSS VL: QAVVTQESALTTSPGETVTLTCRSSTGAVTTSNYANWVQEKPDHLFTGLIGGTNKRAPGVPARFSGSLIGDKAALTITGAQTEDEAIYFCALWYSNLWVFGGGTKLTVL
185000

Repeat with SRP2196-A07 (antibody, V domains shown) VH: EVQLVESGGGLVQPGGSLRLSCAASGFNITGYYIHWVRQAPGKGLEWVGQISPNSGSTYYADSVKGRFTISADTSKNTAYLQMSSLRAEDTAVYYCARDSRRYVRGWDYWGQGTLVTVSS VL: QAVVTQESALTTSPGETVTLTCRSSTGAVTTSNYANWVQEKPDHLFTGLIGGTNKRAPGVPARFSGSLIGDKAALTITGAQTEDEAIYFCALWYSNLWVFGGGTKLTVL
186000
